Where do the numbers come from? From patent US20240335548A1.

- Test system: PC-3
- PROTOCOL_TEXT: IC50 using the MTT assay
- Format: cell-based
- CONDITIONS: 72 hours
- Experimental: The IC50 using the MTT assay [Wilson, Anne P. (2000). “Chapter 7: Cytotoxicity and viability”. In Masters, John R. W. Animal Cell Culture: A Practical Approach. Vol. 1 (3rd ed.). Oxford: Oxford University Press] was determined against various cancer cell lines after 72 hours.
ENDPOINT: pIC50
Note on pIC50: it is the negative log10 of concentration, concentration in mol/L.

Incoming: Query pIC50 for BHALys[Lys]32[α-GILGVP-Glu-DTX]32[ε-t-PEG2300]32 [Example 17]
Outgoing: 6.45
